# Tested on: Mus musculus
# EXPERIMENT_SUMMARY: In vivo acute toxicity (lethal dose) against mice by intravenous administration
# Type: organism-based
Each entry below carries its recorded LD100.
Quick note: give the figure in mg/kg, leave out the unit.

COc1ccc2[nH]c3c(C)c4ccnc(NCCCN5CCN(CCCN)CC5)c4cc3c2c1 | 2.5
CCN(CC)CCCNc1nccc2c(C)c3[nH]c4ccc(O)cc4c3cc12 | 15
CCN(CC)CCCNc1nccc2c(C)c3[nH]c4ccc(O)cc4c3c(C)c12 | 7

Find the recorded LD100 belonging to CCN(CC)CCCNc1nccc2c(C)c3[nH]c4ccc(OC)cc4c3c(C)c12 and report it.
60
